Biological target: CDK1/CyclinB1 (Homo sapiens)
Assay: CDKi biochemical assay (TR-FRET, phosphorylation of S780 on RB1 peptide)
Conditions: CDK1/CyclinB1 10 pM, 1 mM ATP, 60 min at 25° C.
readout: IC50 (µM)
Answers are plain numbers, in µM.

{"smiles_repr": "O=C1N([C@@H]2CCC[C@@H](O)C2)c2nc(Nc3c[nH]nc3O[C@@H]3CCOC3)ncc2C12CC2", "units_text": "µM", "IC50": 3.69}

Parameter requested: IC50. Apply to each item below.
1. O=C1N([C@@H]2CCC[C@@H](O)C2)c2nc(Nc3c[nH]nc3O[C@H]3COC[C@H]3F)ncc2C12CC2
2. COCC(F)(F)COc1n[nH]cc1Nc1ncc2c(n1)N([C@@H]1CCC[C@@H](O)C1)C(=O)C21CC1
3. O=C1N([C@@H]2CCC[C@@H](O)C2)c2nc(Nc3c[nH]nc3C(F)(F)F)ncc2C12CC2
4. Cc1n[nH]cc1Nc1ncc2c(n1)N([C@@H]1CCCC[C@@H](O)C1)C(=O)C21CC1
5. O=C1N([C@@H]2CCC[C@@H](O)C2)c2nc(Nc3c[nH]nc3OCC(F)F)ncc2C12CC2
6. O=C1N([C@@H]2CCC[C@@H](O)C2)c2nc(Nc3c[nH]nc3C3CC3)ncc2C12CC2
7. Cn1ncc(-c2n[nH]cc2Nc2ncc3c(n2)N([C@@H]2CCC[C@@H](O)C2)C(=O)C32CC2)c1C(F)F

[A]
1: 1.92; 2: 1.81; 3: 3.72; 4: 4.49; 5: 0.73; 6: 1.55; 7: 6.57

The measured values listed here are drawn from patent US20240360137A1.
